Assay: Pharmacokinetics in CD-1 mice after single oral and intravenous administration
Type: in vivo, mouse
Conditions: CD-1 mice; TBX-1 1 mpk iv and 5 mpk po, TBX-2 1 mpk iv and 3 mpk po
Protocol: The pharmacokinetics of the compounds were evaluated in CD-1 mice by single oral and intravenous routes of drug administration. The mice were fasted overnight before oral-gavage dosing of the compounds. The solutions used for PK studies were prepared by dissolving the compounds in 5% Solutol HS 15 in water. […] Blood samples were centrifuged to separate plasma, and compound concentrations were determined by LC-MS. […]
ENDPOINT_NAME: Cmax (nM)

[A] CN(C)[C@@H]1CCN(c2ccc3c(c2)Cn2cc(-c4ccc(C#N)cc4)cc2-c2nncn2-3)C1
[B] CN(C)C[C@H]1CC(=O)N(c2ccc3c(c2)Cn2cc(-c4ccc(C#N)cc4)cc2-c2nccn2-3)C1
Which is greater in Cmax, the first item A or the second item B ? Select an item and report its label.
B
(B: 296 nM, A: 58 nM)
